Source of measurements: paper PMC5729109

# systemUnderTest: PP2B (Homo sapiens)
# Sequence (P63098 2-170, other chains not shown): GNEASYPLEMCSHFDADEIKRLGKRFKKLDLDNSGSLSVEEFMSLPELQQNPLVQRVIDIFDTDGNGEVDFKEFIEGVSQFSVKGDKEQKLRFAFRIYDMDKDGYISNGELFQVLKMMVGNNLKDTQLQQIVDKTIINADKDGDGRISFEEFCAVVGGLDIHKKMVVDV
valueKind: IC50 (µM)
Answers are plain numbers, in µM.

Task: IC50 lookup needed for C=C/C(=C/C(=O)C[C@H](C)C[C@@H](C)CC[C@H](O)[C@H](C)C(=O)C[C@@H](O)[C@H](C)[C@@H](C)OC(=O)C[C@@H](O)C1=C(C)C(=O)OC1=O)CC [TTN, Tautomycetin] , thanks.
Result: 17.5

* * *

# systemUnderTest: PP1 (Homo sapiens, UniProt P62136)
# Sequence (P62136 whole entry): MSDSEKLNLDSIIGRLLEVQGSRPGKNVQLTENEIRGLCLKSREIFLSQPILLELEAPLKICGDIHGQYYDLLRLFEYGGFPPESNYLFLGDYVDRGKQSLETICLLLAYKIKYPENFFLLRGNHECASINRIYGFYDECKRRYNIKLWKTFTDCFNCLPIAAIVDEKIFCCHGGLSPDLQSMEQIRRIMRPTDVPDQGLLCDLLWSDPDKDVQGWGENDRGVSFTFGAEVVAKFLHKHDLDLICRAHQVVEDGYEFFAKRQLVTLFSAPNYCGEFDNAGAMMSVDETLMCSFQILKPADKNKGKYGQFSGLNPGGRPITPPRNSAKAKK
valueKind: pIC50
Answers are plain numbers, as −log10 of the molar value.

Task: Name the recorded pIC50 for C=C/C(=C/C(=O)C[C@H](C)C[C@@H](C)CC[C@H](O)[C@H](C)C(=O)C[C@@H](O)[C@H](C)[C@@H](C)OC(=O)C[C@@H](O)C1=C(C)C(=O)OC1=O)CC .
Result: 10.42
